- Tested on: sarcoma SJSA-1 tumor model
- condition_summary: 5 mg/kg once a week for three weeks; Table 7
Each item that follows carries a reported Mouse weight (%).
Report only the number, with the unit % understood.

compound: CC[C@@]1(O)C(=O)OCc2c1cc1n(c2=O)Cc2c-1nc1ccccc1c2CCNC [D1]
unit_tag: %
Mouse weight (%): −6

compound: CC[C@@]1(O)C(=O)OCc2c1cc1n(c2=O)Cc2c-1nc1ccccc1c2CCNCC(C)C [D5]
unit_tag: %
Mouse weight (%): −5

compound: CC[C@@]1(O)C(=O)OCc2c1cc1n(c2=O)Cc2c-1nc1ccccc1c2CCNC(C)C [Belotecan, reference compound]
unit_tag: %
Mouse weight (%): −9

compound: CC[C@@]1(O)C(=O)OCc2c1cc1n(c2=O)Cc2c-1nc1ccccc1c2CCNC1CCC1 [D7]
unit_tag: %
Mouse weight (%): −7

compound: CCCCNCCc1c2c(nc3ccccc13)-c1cc3c(c(=O)n1C2)COC(=O)[C@]3(O)CC [D4]
unit_tag: %
Mouse weight (%): −7

compound: CCCNCCc1c2c(nc3ccccc13)-c1cc3c(c(=O)n1C2)COC(=O)[C@]3(O)CC [D3]
unit_tag: %
Mouse weight (%): −5

Task: State its Mouse weight (%) on sarcoma SJSA-1 tumor model: CCNCCc1c2c(nc3ccccc13)-c1cc3c(c(=O)n1C2)COC(=O)[C@]3(O)CC [D2]
Output: −8
